Here we list compounds with their recorded pIC50 when tested on Tyrosine-protein phosphatase non-receptor type 1 (Homo sapiens, UniProt P18031).
Sequence (P18031 whole entry): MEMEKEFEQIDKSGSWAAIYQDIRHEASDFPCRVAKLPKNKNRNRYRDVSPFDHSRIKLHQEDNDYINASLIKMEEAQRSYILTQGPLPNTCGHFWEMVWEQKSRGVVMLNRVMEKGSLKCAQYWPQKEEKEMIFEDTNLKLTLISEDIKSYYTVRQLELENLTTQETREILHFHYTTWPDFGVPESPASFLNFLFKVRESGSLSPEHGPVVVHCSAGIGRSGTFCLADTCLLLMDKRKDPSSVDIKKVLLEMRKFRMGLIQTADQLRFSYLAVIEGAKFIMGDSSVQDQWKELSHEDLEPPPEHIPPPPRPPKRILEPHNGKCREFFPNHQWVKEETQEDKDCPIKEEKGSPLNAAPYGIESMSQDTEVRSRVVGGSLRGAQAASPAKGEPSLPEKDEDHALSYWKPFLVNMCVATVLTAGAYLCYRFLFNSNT
Note on units: pIC50 is unitless, being -log10 of a concentration expressed in mol/L.

| structure | recorded.number |
| --- | --- |
| CCc1ccc(S(=O)(=O)Nc2ccc(-c3nc4cc(NS(=O)(=O)c5ccc(Cl)s5)ccc4o3)cc2)cc1 | 4.85 |
| C=Cc1ccc(S(=O)(=O)Nc2ccc(-c3nc4cc(NS(=O)(=O)c5ccc(Cl)s5)ccc4o3)cc2)cc1 | 5.00 |
| O=S(=O)(Nc1ccc(-c2nc3cc(NS(=O)(=O)c4cccc(F)c4)ccc3o2)cc1)c1cccc(F)c1 | 4.44 |
| O=S(=O)(Nc1ccc(-c2nc3cc(NS(=O)(=O)c4ccc(Cl)s4)ccc3o2)cc1)c1ccc(Cl)c(Cl)c1 | 5.16 |

Record COc1ccccc1S(=O)(=O)Nc1ccc(-c2nc3ccccc3o2)cc1 / Tyrosine-protein phosphatase non-receptor type 1 (Homo sapiens, UniProt P18031), pIC50 recorded as 4.27

Reported Tyrosine-protein phosphatase non-receptor type 1 (Homo sapiens, UniProt P18031) pIC50 for item CS(=O)(=O)Nc1ccc(-c2nc3cc(NS(=O)(=O)c4ccc(Cl)s4)ccc3o2)cc1 was 4.28

Lab note: compound O=S(=O)(Nc1ccc2oc(-c3ccc(NS(=O)(=O)c4ccc(Cl)s4)cc3)nc2c1)c1ccc(Br)cc1 tested on Tyrosine-protein phosphatase non-receptor type 1 (Homo sapiens, UniProt P18031); recorded pIC50 was 5.16

The compound COc1ccccc1S(=O)(=O)Nc1ccc2oc(-c3ccccc3)nc2c1 on Tyrosine-protein phosphatase non-receptor type 1 (Homo sapiens, UniProt P18031): pIC50 was 4.43

Measured pIC50 for this entry O=S(=O)(Nc1ccc(-c2nc3cc(NS(=O)(=O)c4ccc(Cl)s4)ccc3o2)cc1)c1cccc(C(F)(F)F)c1 on Tyrosine-protein phosphatase non-receptor type 1 (Homo sapiens, UniProt P18031): 4.92

Form field pIC50 for item O=S(=O)(Nc1ccc(-c2nc3ccccc3o2)cc1)c1ccc(F)cc1 on Tyrosine-protein phosphatase non-receptor type 1 (Homo sapiens, UniProt P18031): 4.17

Entry O=S(=O)(Nc1ccc(-c2nc3ccccc3o2)cc1)c1ccc(Cl)c(C(F)(F)F)c1 : pIC50 on Tyrosine-protein phosphatase non-receptor type 1 (Homo sapiens, UniProt P18031) = 4.55

With Tyrosine-protein phosphatase non-receptor type 1 (Homo sapiens, UniProt P18031) as the test system, O=S(=O)(Nc1ccc2oc(-c3ccc(NS(=O)(=O)c4ccc(Cl)s4)cc3)nc2c1)c1ccc(Cl)c(C(F)(F)F)c1 showed pIC50 of 5.12

Observed pIC50, Tyrosine-protein phosphatase non-receptor type 1 (Homo sapiens, UniProt P18031), N#Cc1ccccc1S(=O)(=O)Nc1ccc(-c2nc3cc(NS(=O)(=O)c4ccccc4C#N)ccc3o2)cc1 : 4.25

Short answer on Tyrosine-protein phosphatase non-receptor type 1 (Homo sapiens, UniProt P18031) for O=S(=O)(Nc1ccc(-c2nc3ccccc3o2)cc1)c1ccc(Cl)s1 , pIC50: 4.20

Entry O=S(=O)(Nc1ccc(-c2nc3cc(NS(=O)(=O)c4cccc(Cl)c4)ccc3o2)cc1)c1cccc(Cl)c1 ; assay system Tyrosine-protein phosphatase non-receptor type 1 (Homo sapiens, UniProt P18031); pIC50 recorded at 4.80

Hey, Tyrosine-protein phosphatase non-receptor type 1 (Homo sapiens, UniProt P18031) data for O=S(=O)(Nc1ccc(-c2nc3cc(NS(=O)(=O)c4ccccc4Br)ccc3o2)cc1)c1ccccc1Br : pIC50 came out at 4.62

Result for O=S(=O)(Nc1ccc2oc(-c3ccc(NS(=O)(=O)c4ccc(Cl)s4)cc3)nc2c1)c1cccc(C(F)(F)F)c1 , tested on Tyrosine-protein phosphatase non-receptor type 1 (Homo sapiens, UniProt P18031), pIC50: 4.89

###

Assay: Cytotoxicity against human HEK293 cells assessed as reduction in cell viability after 48 hrs by Alamar blue assay
Assay type: cell-based
Just a reminder that ties go to not fulfilled: only CC50 at 48 h strictly below 70 µM counts as fulfilled.

Examples from the recorded data:
| structure | label |
| --- | --- |
| O=S(=O)(Nc1ccc(-c2nc3ccccc3o2)cc1)c1ccc(F)cc1 | not fulfilled |
| COc1ccccc1S(=O)(=O)Nc1ccc2oc(-c3ccccc3)nc2c1 | fulfilled |
| C=Cc1ccc(S(=O)(=O)Nc2ccc(-c3nc4ccccc4o3)cc2)cc1 | not fulfilled |

**Query** Please let me know if O=S(=O)(Nc1ccc2oc(-c3ccccc3)nc2c1)c1ccc(Cl)cc1 shows CC50 at 48 h below 70 µM.
**Result** fulfilled

**Query** Lab log: compare recorded CC50 at 48 h with 70 µM; is it strictly lower for CCc1ccc(S(=O)(=O)Nc2ccc3oc(-c4ccccc4)nc3c2)cc1 ?
**Result** not fulfilled

**Query** Does the reported CC50 at 48 h of the following molecule sit strictly below 70 µM? COc1ccc(S(=O)(=O)Nc2ccc(-c3nc4ccccc4o3)cc2)cc1
**Result** not fulfilled

**Query** Quick check: CC50 at 48 h of O=S(=O)(Nc1ccc2oc(-c3ccccc3)nc2c1)c1ccc(Cl)c(C(F)(F)F)c1 under 70 µM?
**Result** fulfilled

**Query** In the record for O=S(=O)(Nc1ccc2oc(-c3ccccc3)nc2c1)c1cccc(C(F)(F)F)c1 , is CC50 at 48 h less than 70 µM?
**Result** not fulfilled

**Query** hey, is CC50 at 48 h for Cc1ccc(S(=O)(=O)Nc2ccc(-c3nc4ccccc4o3)cc2)cc1 lower than 70 µM or not?
**Result** not fulfilled

###

Biological target: HSP60/HSP10 (Homo sapiens)
Sequence (P10809 whole entry): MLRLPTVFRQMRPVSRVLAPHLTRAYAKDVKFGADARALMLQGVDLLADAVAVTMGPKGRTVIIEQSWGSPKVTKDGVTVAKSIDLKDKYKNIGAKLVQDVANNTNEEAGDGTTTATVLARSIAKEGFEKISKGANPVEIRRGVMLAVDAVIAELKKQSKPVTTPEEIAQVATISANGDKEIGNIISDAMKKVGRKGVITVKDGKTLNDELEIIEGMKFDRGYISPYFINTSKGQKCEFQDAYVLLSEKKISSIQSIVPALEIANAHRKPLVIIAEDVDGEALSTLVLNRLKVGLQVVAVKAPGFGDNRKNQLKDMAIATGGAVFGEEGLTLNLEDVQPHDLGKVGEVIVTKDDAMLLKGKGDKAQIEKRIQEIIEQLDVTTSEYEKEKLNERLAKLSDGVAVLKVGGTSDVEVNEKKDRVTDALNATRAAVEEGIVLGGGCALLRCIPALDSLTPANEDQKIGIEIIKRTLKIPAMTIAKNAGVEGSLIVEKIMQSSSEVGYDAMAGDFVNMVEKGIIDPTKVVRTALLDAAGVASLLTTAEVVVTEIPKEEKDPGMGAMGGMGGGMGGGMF
Sequence (P61604 whole entry, further chain): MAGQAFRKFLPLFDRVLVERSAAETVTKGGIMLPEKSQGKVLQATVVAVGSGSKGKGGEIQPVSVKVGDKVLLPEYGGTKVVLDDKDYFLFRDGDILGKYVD
Entries annotated with measured IC50
Provide only the numeric value, understood in µM.

Completed entries (count: 8):
| structure | tested.system | IC50 (µM) |
| --- | --- | --- |
| O=S(=O)(Nc1ccc(-c2nc3cc(NS(=O)(=O)c4ccccc4)ccc3o2)cc1)c1ccccc1 | HSP60/HSP10 (Homo sapiens) | 80 |
| O=S(=O)(Nc1ccc(-c2nc3ccccc3o2)cc1)c1ccc(Cl)s1 | HSP60/HSP10 (Homo sapiens) | 31 |
| O=S(=O)(Nc1ccc(-c2nc3ccccc3o2)cc1)c1ccc(F)cc1 | HSP60/HSP10 (Homo sapiens) | 73 |
| CS(=O)(=O)Nc1ccc(-c2nc3cc(NS(=O)(=O)c4ccc(Cl)s4)ccc3o2)cc1 | HSP60/HSP10 (Homo sapiens) | 43 |
| O=S(=O)(Nc1ccc(-c2nc3ccccc3o2)cc1)c1ccc(F)c(C(F)(F)F)c1 | HSP60/HSP10 (Homo sapiens) | 28 |
| O=S(=O)(Nc1ccc(-c2nc3cc(NS(=O)(=O)c4cccc(O)c4)ccc3o2)cc1)c1cccc(O)c1 | HSP60/HSP10 (Homo sapiens) | 17 |
| Cc1ccccc1S(=O)(=O)Nc1ccc(-c2nc3ccccc3o2)cc1 | HSP60/HSP10 (Homo sapiens) | 85 |
| O=S(=O)(Nc1ccc(-c2nc3ccccc3o2)cc1)c1cccs1 | HSP60/HSP10 (Homo sapiens) | 63 |

Noted IC50 for O=S(=O)(Nc1ccc(-c2nc3ccccc3o2)cc1)c1cccc(Cl)c1 , tested on HSP60/HSP10 (Homo sapiens): 54

Record O=S(=O)(Nc1ccc2oc(-c3ccccc3)nc2c1)c1cccc(O)c1 / HSP60/HSP10 (Homo sapiens), IC50 recorded as 76

###

Target: E. coli GroEL/ES (Escherichia coli, UniProt P0A6F5)
Sequence (P0A6F5 whole entry, looked up): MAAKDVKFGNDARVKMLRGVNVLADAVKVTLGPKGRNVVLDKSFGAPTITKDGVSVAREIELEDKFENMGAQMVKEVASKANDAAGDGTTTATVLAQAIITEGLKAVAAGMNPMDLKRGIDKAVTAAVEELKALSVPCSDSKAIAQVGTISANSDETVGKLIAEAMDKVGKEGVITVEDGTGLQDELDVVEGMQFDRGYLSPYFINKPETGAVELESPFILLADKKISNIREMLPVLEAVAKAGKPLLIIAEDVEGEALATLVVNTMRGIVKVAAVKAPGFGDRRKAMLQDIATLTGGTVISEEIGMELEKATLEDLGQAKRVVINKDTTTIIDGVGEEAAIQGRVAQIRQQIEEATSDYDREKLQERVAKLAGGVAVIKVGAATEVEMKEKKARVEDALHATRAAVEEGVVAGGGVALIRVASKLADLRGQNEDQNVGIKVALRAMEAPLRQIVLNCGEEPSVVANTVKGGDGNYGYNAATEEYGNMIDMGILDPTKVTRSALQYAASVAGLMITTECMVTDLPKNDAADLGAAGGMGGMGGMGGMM
Assay: Inhibition of Escherichia coli GroEL expressed in Escherichia coliDH5alpha/Escherichia coli GroES expressed in Escherichia coli BL21 (DE3) assessed as reduction in GroEL/GroES-mediated denatured pig heart mitochondrial MDH refolding by measuring MDH enzyme activity using sodium mesoxalate as substrate after 20 to 40 mins by spectrometric analysis
experimental.readout: pIC50
Scale: negative log10 of molar concentration, which is what pIC50 denotes.

| structure | tested.system | pIC50 |
| --- | --- | --- |
| O=S(=O)(Nc1ccc2oc(-c3ccccc3)nc2c1)c1ccccc1C(F)(F)F | E. coli GroEL/ES (Escherichia coli, UniProt P0A6F5) | 4.04 |

O=S(=O)(Nc1ccc2oc(-c3ccccc3)nc2c1)c1ccc(Cl)c(C(F)(F)F)c1 yielded pIC50 of 4.04

The compound listed as Cc1ccccc1S(=O)(=O)Nc1ccc(-c2nc3ccccc3o2)cc1 shows pIC50 equal to 4.12

###

Target: UniProtKB A0A045ISB3
Sequence (A0A045ISB3 whole entry): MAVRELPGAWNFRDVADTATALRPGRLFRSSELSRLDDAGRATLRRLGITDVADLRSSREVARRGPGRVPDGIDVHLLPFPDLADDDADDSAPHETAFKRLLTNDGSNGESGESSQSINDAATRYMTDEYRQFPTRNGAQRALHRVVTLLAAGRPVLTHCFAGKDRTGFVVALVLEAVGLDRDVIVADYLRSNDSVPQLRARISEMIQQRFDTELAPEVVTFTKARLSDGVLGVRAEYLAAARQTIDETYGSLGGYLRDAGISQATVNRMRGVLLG
Define the label as Fulfilled when IC50 is strictly less than 30 µM and as Not fulfilled in all remaining cases.

Field: example entries. Status: answers known.
| structure | tested.system | label |
| --- | --- | --- |
| CCc1ccc(S(=O)(=O)Nc2ccc3oc(-c4ccc(NS(=O)(=O)c5ccc(Cl)s5)cc4)nc3c2)cc1 | UniProtKB A0A045ISB3 | Fulfilled |
| O=S(=O)(Nc1ccc(-c2nc3cc(NS(=O)(=O)c4cccc5nonc45)ccc3o2)cc1)c1cccc2nonc12 | UniProtKB A0A045ISB3 | Fulfilled |
| O=S(=O)(Nc1ccc(-c2nc3ccccc3o2)cc1)c1ccccc1 | UniProtKB A0A045ISB3 | Not fulfilled |
| O=S(=O)(Nc1ccc2oc(-c3ccccc3)nc2c1)c1ccc(O)cc1 | UniProtKB A0A045ISB3 | Not fulfilled |
| N#Cc1cccc(S(=O)(=O)Nc2ccc(-c3nc4cc(NS(=O)(=O)c5cccc(C#N)c5)ccc4o3)cc2)c1 | UniProtKB A0A045ISB3 | Not fulfilled |
| O=S(=O)(Nc1ccc(-c2nc3ccccc3o2)cc1)c1cccc(C(F)(F)F)c1 | UniProtKB A0A045ISB3 | Not fulfilled |
| O=S(=O)(Nc1ccc(-c2nc3ccccc3o2)cc1)c1ccc(Cl)c(C(F)(F)F)c1 | UniProtKB A0A045ISB3 | Fulfilled |
| O=S(=O)(Nc1ccc(-c2nc3cc(NS(=O)(=O)c4ccc(Cl)s4)ccc3o2)cc1)c1ccc(Cl)c(C(F)(F)F)c1 | UniProtKB A0A045ISB3 | Fulfilled |
| O=S(=O)(Nc1ccc2oc(-c3ccc(NS(=O)(=O)c4ccc(Cl)s4)cc3)nc2c1)c1ccc(Cl)c(Cl)c1 | UniProtKB A0A045ISB3 | Fulfilled |
| O=S(=O)(Nc1ccc(-c2nc3cc(NS(=O)(=O)c4ccc(Cl)s4)ccc3o2)cc1)c1ccc(Br)cc1 | UniProtKB A0A045ISB3 | Fulfilled |

**Query** Determine whether this compound shows IC50 lower than 30 µM (ties excluded): O=S(=O)(Cc1ccccc1)Nc1ccc(-c2nc3cc(NS(=O)(=O)Cc4ccccc4)ccc3o2)cc1
**Result** Fulfilled

**Query** Is the reported IC50 for O=S(=O)(Nc1ccc(-c2nc3cc(NS(=O)(=O)c4ccc(Cl)s4)ccc3o2)cc1)c1ccccc1 strictly below 30 µM?
**Result** Fulfilled

**Query** Item C=Cc1ccc(S(=O)(=O)Nc2ccc3oc(-c4ccc(NS(=O)(=O)c5ccc(Cl)s5)cc4)nc3c2)cc1 : IC50 beneath 30 µM, strictly?
**Result** Fulfilled

**Query** Lab log: compare recorded IC50 with 30 µM; is it strictly lower for O=S(=O)(Nc1ccc2oc(-c3ccccc3)nc2c1)c1cccc(F)c1 ?
**Result** Not fulfilled
